Task for the reader: assign each of the following compounds its reported EC50.
Tested on: HCV replicon cells
Test: HCV replicon FRET / luciferase assay
Assay type: cell-based
Conditions: 50% reduction in FRET or luciferase activity in HCV replicon cells; read-out: EC50

Example cases with answers are listed next.
COMPOUND	EC50
COc1ccc2c(c1)C1CC1(C(=O)N1CCN3CCC1CC3)Cn1c-2c(C2CCCCC2)c2ccc(C(=O)NS(=O)(=O)C3CC3)cc21 (stereo not drawn) [drawing 71]	2.4 to 500 nM
COc1ccc2c(c1)[C@@H]1C[C@]1(C(=O)N1CC3CCC1CN3C)Cn1c-2c(C2CCCCC2)c2ccc(C(=O)NS(=O)(=O)C(C)C)cc21 (stereo partly drawn) [drawing 129]	2.4 to 500 nM
COc1ccc2c(c1)C1CC1(C(=O)N1C[C@@H]3C[C@H]1CN3C)Cn1c-2c(C2CCCCC2)c2ccc(C(=O)NS(=O)(=O)C3CC3)cc21 (stereo partly drawn) [drawing 51]	> 500 nM
COc1ccc2c(c1)C1CC1(C(=O)N1C[C@@H]3C[C@H]1CN3C)Cn1c-2c(C2CCCCC2)c2ccc(C(=O)NS(=O)(=O)C3CC3)cc21 (stereo partly drawn) [drawing 53]	2.4 to 500 nM
COc1ccc2c(c1)C1CC1(C(=O)N1C[C@@H]3C[C@H]1CN3CC(C)C)Cn1c-2c(C2CCCCC2)c2ccc(C(=O)NS(=O)(=O)C(C)C)cc21 (stereo partly drawn) [drawing 95]	2.4 to 500 nM

With those in mind, consider the next compound.
-- ask Report EC50 for CCN1C[C@H]2C[C@@H]1CN2C(=O)C12CC1c1cc(OC)ccc1-c1c(C3CCCCC3)c3ccc(C(=O)NS(=O)(=O)C4CC4)cc3n1C2 (stereo partly drawn) [drawing 44]
-- reply 2.4 to 500 nM

---

Molecular target: HCV NS5B (Hepatitis C virus genotype 1b)
Construct: The protein was expressed with an 18 amino acid C-terminal truncation to enhance the solubility; made in house; host or cells: E. coli BL21(DE3)
Sequence (Q9WMX2 2420-2992): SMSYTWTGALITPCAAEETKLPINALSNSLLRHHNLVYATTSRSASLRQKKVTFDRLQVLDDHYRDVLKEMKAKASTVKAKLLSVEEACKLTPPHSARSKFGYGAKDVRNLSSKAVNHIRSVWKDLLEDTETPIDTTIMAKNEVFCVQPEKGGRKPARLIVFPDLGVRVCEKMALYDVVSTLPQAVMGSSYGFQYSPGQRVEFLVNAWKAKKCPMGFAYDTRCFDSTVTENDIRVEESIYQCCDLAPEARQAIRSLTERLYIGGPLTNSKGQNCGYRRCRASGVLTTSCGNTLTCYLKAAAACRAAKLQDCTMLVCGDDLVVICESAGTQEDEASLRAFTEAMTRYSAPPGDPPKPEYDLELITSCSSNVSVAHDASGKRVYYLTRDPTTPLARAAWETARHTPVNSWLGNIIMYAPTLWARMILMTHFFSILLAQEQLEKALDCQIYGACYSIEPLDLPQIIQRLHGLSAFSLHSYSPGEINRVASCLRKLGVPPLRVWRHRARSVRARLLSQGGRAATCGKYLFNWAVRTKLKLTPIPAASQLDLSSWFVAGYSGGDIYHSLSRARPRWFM
Experiment: HCV NS5B RdRp enzyme assay (standard / modified)
Assay type: biochemical
Conditions: HCV RdRp genotype 1b; standard or modified assay not specified; read-out: IC50
Task for the reader: assign each of the following compounds its reported IC50.

Consider the following items and state reported IC50 for each.
1. COc1ccc2c(c1)C1CC1(C(=O)N1CC3CN(C)CC(C1)N3C)Cn1c-2c(C2CCCCC2)c2ccc(C(=O)NS(=O)(=O)N(C)C)cc21 (stereo not drawn)
2. CCN1C[C@H]2C[C@@H]1CN2C(=O)C12CC1c1cc(OC)ccc1-c1c(C3CCCCC3)c3ccc(C(=O)NS(N)(=O)=O)cc3n1C2 (stereo partly drawn)
3. COc1ccc2c(c1)C1CC1(C(=O)N1C[C@H]3C[C@@H]1CN3CC(C)C)Cn1c-2c(C2CCCCC2)c2ccc(C(=O)NS(N)(=O)=O)cc21 (stereo partly drawn)

-- reply
2.4 to 500 nM
2.4 to 500 nM
2.4 to 500 nM
